B1: library; numbered along this chain (parent)
chain: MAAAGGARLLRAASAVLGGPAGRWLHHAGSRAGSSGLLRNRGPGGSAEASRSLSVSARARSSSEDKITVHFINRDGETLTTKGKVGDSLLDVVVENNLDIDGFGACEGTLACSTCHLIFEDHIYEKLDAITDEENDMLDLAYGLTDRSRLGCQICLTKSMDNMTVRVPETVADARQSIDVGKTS

# Variants of: B1
# METHOD_DESCRIPTION: scaled log2 fold change in cell abundance, elesclomol vs control (0 = silent mean, 1 = nonsense mean) (scaled log2 ratio); higher = higher viability under elesclomol (loss of FDX1 cuproptosis function);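 further: variant abundance is its share of total variant reads in each endpoint sample, from next-generation sequencing of the integrated ORF PCR-amplified out of genomic DNA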
# COND: with ABC1 FDX1 KO; elesclomol 5 nM; glucose 10 mM; 14 days
Returns Fulfilled if the recorded scaled log2 fold change is greater than or equal to 0.1, and Not fulfilled otherwise.

L117C :: Not fulfilled

Here is the next item to consider.
Check the entry G181L : does scaled log2 fold change equal or exceed 0.1?
Fulfilled
